Please respond with reported GI50 for every item in the list.
test system: HT-29; test: NCI tumour cell line growth inhibition, 48 h
Active and inactive are the calls of the source. Rule as the data show it: active = GI50 up to about 1.1 µM and inactive = higher.

What reported GI50 corresponds to C#CCn1c(=O)ccn(/C(=C\C(=O)OCC)C(=O)OCC)c1=O on HT-29?
2.04 µM (inactive)

What reported GI50 corresponds to O=c1c2sc3nc(NCCN4CCCCC4)ncc3c2ncn1-c1ccccc1 on HT-29?
30.5 µM (inactive)

What reported GI50 corresponds to OC1c2ccccc2[C@@H]2[C@H]1[C@@H](c1ccccc1)C1(Cc3ccccc3C1O)[C@H]2c1ccccc1 (stereo not given in full) on HT-29?
2.29 µM (inactive)

What reported GI50 corresponds to NC(CCCCCCCCCCP(=O)(O)O)C(=O)O (stereo not given) on HT-29?
> 100 µM (inactive)

What reported GI50 corresponds to N#CCCn1c(S)nnc1CCC(=O)Nc1ccc(Cl)cc1Cl on HT-29?
> 100 µM (inactive)
